target: Voltage-gated potassium channel subunit beta-2 (Rattus norvegicus); assay: inhibitors of rat Kvbeta2 reductase activity – biochemical, NADPH fluorescence, primary screen (AID 622); settings: recombinant KvBeta, 4-cyanobenzaldehyde reduction, at 10 µM, stronger effect = higher value;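 further: slope of raw intensity against log time taken from 70 to 1610 s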
Active and inactive are the calls of the source.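 How the source made its calls: active means fluorescence slope higher than the sample average by over 3 SD (cut at about -0.22 in these data, passing the limit was not always enough); inactive means the rest.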
Could you please report measured fluorescence slope for the items listed next?

Here are 5 compounds together with their reported answers.
compound: COCC(=O)n1nc(NCc2ccc(OC)cc2)nc1NCc1ccc(OC)cc1
target-entity: Voltage-gated potassium channel subunit beta-2 (Rattus norvegicus)
fluorescence slope: -0.377 (inactive)
//
compound: Cc1cccc(Cn2c(=O)n(Cc3ccco3)c(=O)c3ccccc32)c1
target-entity: Voltage-gated potassium channel subunit beta-2 (Rattus norvegicus)
fluorescence slope: -0.608 (inactive)
//
compound: CS(=O)(=O)N(CC(=O)Nc1ccc2c(c1)OCO2)Cc1ccc(Cl)cc1
target-entity: Voltage-gated potassium channel subunit beta-2 (Rattus norvegicus)
fluorescence slope: -0.428 (inactive)
//
compound: O=C(Cn1[nH]c(=O)c2ccccc2c1=O)OCC(=O)N1CCCc2ccccc21
target-entity: Voltage-gated potassium channel subunit beta-2 (Rattus norvegicus)
fluorescence slope: -0.389 (inactive)
//
compound: CS(=O)(=O)NCc1nnc(SCC(=O)NC2CCCCC2)n1-c1ccc(F)cc1
target-entity: Voltage-gated potassium channel subunit beta-2 (Rattus norvegicus)
fluorescence slope: -0.388 (inactive)

Quick one: give me fluorescence slope for each item below, same order please.
1. CC(=O)N1CCC2(CC1)CC(=O)c1cc(OCC(=O)NCc3ccco3)ccc1O2
2. COc1ccccc1-n1cnc(N)c1C(C)=O

["-0.253 (inactive)", "-0.586 (inactive)"]

Quick one: give me fluorescence slope for each item below, same order please.
1. Cc1cccc(OCc2nc(C#N)c(NCCN(C)C)o2)c1
2. CC1(C)CC(=O)CC(C)(C)N1OC(=O)c1ccccn1

1. -0.514 (inactive)
2. -0.495 (inactive)

Quick one: give me fluorescence slope for each item below, same order please.
1. O=C(c1ccco1)N1CCN(c2nc(C(F)(F)F)nc3c2nnn3Cc2ccccc2)CC1
2. O=C(Nc1c(-c2ccccc2)nc2ccccn12)c1ccco1
3. OC(CNCCc1ccccc1)c1ccccc1 (stereo not drawn)
4. Cn1c(=O)[nH]c(=O)c2c1nc(N1CCc3ccccc3C1)n2CCSc1nc2ccccc2s1
5. CC1=NC(Nc2nc(C)c3ccccc3n2)=NC(C)(C)C1

1. -0.484 (inactive)
2. -0.56 (inactive)
3. -0.37 (inactive)
4. -0.502 (inactive)
5. -0.462 (inactive)

Quick one: give me fluorescence slope for each item below, same order please.
1. CCN1CCN(C(=O)c2cc3c(=O)n(C)c4ccccc4c3n2C)CC1
2. CCn1cc(C2=NOC(C(=O)Nc3c(C)nn(Cc4ccc(F)cc4)c3C)C2)c(C)n1 (stereo not drawn)
3. CCOc1ccccc1-n1nnnc1SCC(=O)Nc1cc2oc3ccccc3c2cc1OC
4. CN(C)CCCN1C(=O)c2oc3ccc(Cl)cc3c(=O)c2C1c1cccnc1 (stereo not drawn)
5. Cc1cccc(-n2c(SCc3cc(=O)n4ccsc4n3)nc3ccccc32)c1
6. COc1ccc(C(=O)Nc2ccc(Cl)c(Cl)c2)c(OC)n1
7. Cc1nc2ccccc2n1CCC(=O)Nc1cccc(F)c1
8. Cc1cc(Br)c(S(=O)(=O)n2nnc3ccccc32)cc1C

-0.583 (inactive)
-0.581 (inactive)
-0.568 (inactive)
-0.546 (inactive)
-0.525 (inactive)
-0.364 (inactive)
-0.303 (inactive)
-0.326 (inactive)

* * *

target: Muscarinic acetylcholine receptor M4 (Homo sapiens) (UniProt P08173); test: M4-linked GIRK flux change, two-sided – cell-based, HEK293 M4/GIRK, thallium flux, BTC-AM, M4 allosteric agonist project, primary screen (AID 625); conditions: at 10 µM, actives lie on both sides;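 further: thallium influx through GIRK channels coupled to M4 in HEK293 cells with BTC-AM dye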
Sequence (P08173 whole entry, looked up): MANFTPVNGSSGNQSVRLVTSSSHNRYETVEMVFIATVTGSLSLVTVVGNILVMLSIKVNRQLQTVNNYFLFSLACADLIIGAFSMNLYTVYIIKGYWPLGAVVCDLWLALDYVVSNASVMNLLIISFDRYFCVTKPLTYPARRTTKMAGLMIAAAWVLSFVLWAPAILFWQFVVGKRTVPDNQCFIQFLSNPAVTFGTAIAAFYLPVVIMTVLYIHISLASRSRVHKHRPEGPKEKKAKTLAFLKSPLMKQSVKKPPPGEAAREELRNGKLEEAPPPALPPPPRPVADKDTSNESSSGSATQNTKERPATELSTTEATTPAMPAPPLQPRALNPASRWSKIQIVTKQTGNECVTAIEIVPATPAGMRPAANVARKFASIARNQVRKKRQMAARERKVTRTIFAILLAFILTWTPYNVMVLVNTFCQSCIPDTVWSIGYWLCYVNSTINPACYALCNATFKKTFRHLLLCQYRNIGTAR
reported-metric: fluorescence slope
Numbers only.

Here are 10 molecules together with their reported answers.
molecule: CCOc1nc(-c2ccccc2)ccc1-c1noc(-c2cccnc2)n1
fluorescence slope: 0.00434
//
molecule: COC(=O)C1=C(C)N(c2ccc(C(=O)OC)cc2)C(=O)C1
fluorescence slope: 0.00678
//
molecule: O=C(CCN1CCOCC1)Nc1cccc(Br)c1
fluorescence slope: 0.00691
//
molecule: Cc1cccc(-n2ncc3c(NCc4ccccn4)ncnc32)c1
fluorescence slope: 0.00598
//
molecule: CC1(C)CC(=O)c2cnc(NCc3ccco3)nc2C1
fluorescence slope: 0.00659
//
molecule: CC(=O)c1cc2c(=O)c3cc(C)ccc3oc2nc1C
fluorescence slope: 0.00597
//
molecule: O=C(c1cc(-c2cccs2)on1)N1CCc2ccccc2C1
fluorescence slope: 0.00464
//
molecule: Cc1c(NC(=O)C(C)OC(=O)C(NC(=O)c2ccco2)C(C)C)c(=O)n(-c2ccccc2)n1C (stereo unspecified)
fluorescence slope: 0.00712
//
molecule: Cc1[nH]c(=O)[nH]c(=O)c1S(=O)(=O)N(C)Cc1ccccc1
fluorescence slope: 0.00478
//
molecule: COc1ccccc1NC(=O)N(Cc1ccccc1)c1ccccn1
fluorescence slope: 0.00744

Quick one: give me fluorescence slope for each item below, same order please.
1. Clc1ccc(Cl)c(-c2nn3c(COc4ccccc4)nnc3s2)c1
2. CCOC(=O)c1oc2ccccc2c1CSc1nnnn1-c1ccc(OC)cc1
3. Cc1ccccc1NS(=O)(=O)c1ccc(NC(=O)c2ccco2)cc1
4. O=c1[nH]c(SCc2cc(=O)n3ccccc3n2)nc2c1CCC2
5. OCc1nc(CO)n(Cc2ccccc2)n1

0.00451
0.00514
0.00578
0.00602
0.00536

Quick one: give me fluorescence slope for each item below, same order please.
1. Cc1csc2nc3ccccc3c(=O)n12
2. COC(=O)CCc1c(C)c(C#N)c2nc3ccccc3n2c1N1CCCC1

1. 0.00358
2. 0.00578

Quick one: give me fluorescence slope for each item below, same order please.
1. CC1(C)NC(=O)N(CCCOc2ccc(Br)cc2Cl)C1=O
2. COc1ccc(C(=O)Nc2ccc(S(=O)(=O)Nc3nccnc3OC)cc2)cc1OC
3. CCCS(=O)(=O)N1CCC(C(=O)N2CCCC2)CC1
4. O=C(CN1C(=O)c2cccc3cccc1c23)N1CCN(c2ccccc2)CC1

[0.00559, 0.0057, 0.00435, 0.00738]

* * *

assay: inhibitors of TNFa-induced NFkB p65 translocation, primary screen, imaging, HUVEC, MLSMR starter and 10KST1 sets (AID 438); details: HUVEC TNFa-induced p65 nuclear translocation; measured here: nuclei count (cytotoxicity indicator), at 2.08 µM;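 further: compound added about 3h40 before a 20 min TNFalpha stimulation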
Could you please report measured cell count for the items listed next?
Numbers only.

Here are 2 compounds together with their reported answers.
compound: COc1ccc(CCNC(=O)CC2COc3ccccc3O2)cc1OC (stereo not drawn)
cell count: 611
//
compound: COc1ccc(NC(=O)C23CCC(C)(C(=O)C2)C3(C)C)cc1 (stereo not drawn)
cell count: 606

Next:
Look up cell count for this compound: "CCN1C(=O)/C(=C/N(C)c2ccccc2)OC1=S"
592

* * *

assay: endothelial E-selectin expression blockers – imaging, HUVEC, immunofluorescence, MLSMR starter and 10KST1 sets, primary screen (AID 487); conditions: HUVEC TNFalpha-induced E-selectin immunofluorescence imaging, at 2 µM; stronger effect = higher value;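 further: signal is fraction of cell area covered by stained E-selectin grains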
Would you mind labelling by inhibition? At or over -30% is class 1, under is class 0.

Study these solved cases before continuing.
molecule: Cc1ccc(Cl)cc1N1CCN(C(=O)c2cn(C)c(=O)c3c2c2ccccc2n3C)CC1
discrete-label: class 0
//
molecule: COc1cccc(NC(=O)Cc2nnc(SCC(=O)c3ccccc3)n2C)c1
discrete-label: class 0
//
molecule: CCOc1ccc(OCC)c(NC(=O)CN2CCN(C(=O)c3ccco3)CC2)c1
discrete-label: class 0
//
molecule: Cc1ccc2c(c1)sc1ncc(NC(=O)c3ccccc3)c(=O)n12
discrete-label: class 1
//
molecule: Cc1cccc(-n2c(Cc3cc(=O)[nH]c(=O)[nH]3)nnc2SCC(=O)NCc2ccco2)c1
discrete-label: class 1
//
molecule: COc1ccc(S(=O)(=O)NCc2ccc(C(=O)O)cc2)cc1
discrete-label: class 0
//
molecule: CCOC(=O)c1c2n(c3ccc(O)cc13)CCCCC2
discrete-label: class 0
//
molecule: O=C1CCCCCC1C1(O)C(=O)Nc2ccccc21 (stereo unspecified)
discrete-label: class 1
//
molecule: COc1ccc(-c2nnc(SCC(=O)N3CCCCC3)o2)cc1OC
discrete-label: class 0
//
molecule: O=C(COC(=O)c1cc(S(=O)(=O)N2CCOCC2)cs1)c1ccccc1
discrete-label: class 0

Kindly determine if inhibition recorded for N#CC1=C(SCc2ccccc2)NC(=O)C(C#N)C12CCCC2 (stereo unspecified) is above or exactly -30%.
class 1

Next: "O=S(=O)(c1cccc(S(=O)(=O)N2CCC(N3CCCCC3)CC2)c1)N1CCOCC1"
class 1

Next: "CCOC(=O)N1CCN(Cc2cc(=O)oc3ccc4ccccc4c23)CC1"
class 0

Next: "CCCn1c(SCC(=O)NC(C)(C)C)nnc1C(C)C"
class 1
